SYSTEM_TESTED: ARHGAP5
ASSAY_DETAILS: pooled miR-30 sensor sort-seq; sequence = guide strand; also: reference of the scale not given here
MEASUREMENT_CONDITIONS: shRNA
Listed next: entries and their corresponding sensor-assay potency score (higher = more potent).

* ATGATCTTGATCAAACTGCTTT | -0.663
* TTTTATTTCATTATGGACCATA | -0.301
* TTTAGCCACAAGCATGTCCTTG | -0.792

Query block: For ARHGAP5, give sensor-assay potency score (higher = more potent) of the listed sequence: TTCTACACTATACTAAATGTGT
Result block: -0.488

---

SYSTEM_TESTED: HBA1
ASSAY_DETAILS: pooled miR-30 sensor sort-seq; sequence = guide strand
MEASUREMENT_CONDITIONS: shRNA
METRIC_NAME: sensor-assay potency score (higher = more potent)

The examples below pair each entry with its known result.
* ACGGGGGTACGGGTGCAGGAAG | -2.14
* AAGACCACGGGGGTACGGGTGC | -0.867
* AAGGGGCAAGAAGCATGGCCAC | -1.79
* ACCACGGGGGTACGGGTGCAGG | -2.46

Query block: Please supply the value of reported sensor-assay potency score (higher = more potent) for the item TTCAAAGACCACGGGGGTACGG
Result block: -1.1

---

SYSTEM_TESTED: DLAT
ASSAY_DETAILS: pooled miR-30 sensor sort-seq; sequence = guide strand
MEASUREMENT_CONDITIONS: shRNA
METRIC_NAME: sensor-assay potency score (higher = more potent)
Reply with the value as a number alone.

- TTTAAATCTGTTACTTCGGTTG: -0.374
- TTCATTATCTGCAGGGACCAGT: -0.346
- TTGTCTTATAACTGTGTCCATC: -1.31
- TGATTTTGTCTTATAACTGTGT: 0.275
- TTCTCTACTGCCAACTTCTTTG: -0.772

Query block: Supply reported sensor-assay potency score (higher = more potent) belonging to this sequence: TTTGATTGCATTAATCGCTGTG
Result block: 0.738

Query block: Give the measured sensor-assay potency score (higher = more potent) for TATCTTATTAAGTTCTTTCCGT
Result block: 0.0125

Query block: Quick one: give measured sensor-assay potency score (higher = more potent) for TTTGTCTTATAACTGTGTCCAT
Result block: -0.255

---

SYSTEM_TESTED: ATP7B
ASSAY_DETAILS: pooled miR-30 sensor sort-seq; sequence = guide strand
MEASUREMENT_CONDITIONS: shRNA
METRIC_NAME: sensor-assay potency score (higher = more potent)
# output: bare number, no unit

Here is how some sequences turned out for sensor-assay potency score (higher = more potent).
* TTTGTTGATGCCAACCTGGGTG | -0.00244
* TGTCCTGCTCAGCTTGTGGTGA | -0.618
* TTCAGGAGCAGAGACCACTTGT | -0.382
* TTGTCAAACATCACAGTCTTTA | -0.992
* TTTCATCTCGTGGTCTGTCATA | -1.47
* TTATCTTGTGCGCCATCTCCAG | -0.947
* TAGAGTCCAAGACAAAGCCCAT | -1.12
* TTCCTCTTTACAGTATTTGGTG | -0.123
* TAGCACTTGAGCTGCAGGGATG | -1.64
* TATAGCACTTGAGCTGCAGGGA | -0.435

Next item in the queue.
Query block: # return recorded sensor-assay potency score (higher = more potent) for input TCTCGTGGTCTGTCATAGCGTC
Result block: -0.487
